pIC50 for Tyrosine-protein kinase Lyn (Homo sapiens, UniProt P07948) - collated from the literature.
pIC50: −log10 of the molar value.
RECORDED METRIC: pIC50

SMILES INPUT	RECORDED METRIC	RESULT
CN(C)c1ccc(NC(=O)c2cccc3[nH]c(-c4n[nH]c5ncc(-c6cncc7ccccc67)cc45)nc23)cc1	pIC50	8.36
COc1cc(Nc2ncnc(-n3c(NCc4cccc(Br)c4)nc4ccccc43)n2)cc(OC)c1OC	pIC50	> 6.15
Nc1ncnc2c1c(-c1ccc(Oc3ccccc3)cc1)nn2C[C@@H]1SSC[C@@H]1O	pIC50	6.00 to 7.00
C=CCNc1cc(-c2ncnc(Nc3cc(OC)c(OC)c(OC)c3)n2)ccn1	pIC50	> 5.99
C=CC(=O)N1CC[C@@H](n2c(=O)n(-c3ccc(Oc4cccc(C)c4)cc3)c3cnccc32)C1	pIC50	5.00 to 6.00
COc1cc(Nc2ncnc(-n3c(NCc4ccccc4)nc4ccccc43)n2)cc(OC)c1OC	pIC50	> 6.08
COc1cc(Nc2ncnc(N(C)c3cccc(Cl)c3)n2)cc(OC)c1OC	pIC50	5.22 to 6.00
COc1cccc(Nc2nc3ccccc3n2-c2ncnc(Nc3cc(OC)c(OC)c(OC)c3)n2)c1	pIC50	< 5.05
